target: human kisspeptin receptor (KISS1R) (human), Q969F8; experiment: radioligand competition, hKISS1R membranes; legend: C is >100 nM
Sequence (Q969F8 whole entry): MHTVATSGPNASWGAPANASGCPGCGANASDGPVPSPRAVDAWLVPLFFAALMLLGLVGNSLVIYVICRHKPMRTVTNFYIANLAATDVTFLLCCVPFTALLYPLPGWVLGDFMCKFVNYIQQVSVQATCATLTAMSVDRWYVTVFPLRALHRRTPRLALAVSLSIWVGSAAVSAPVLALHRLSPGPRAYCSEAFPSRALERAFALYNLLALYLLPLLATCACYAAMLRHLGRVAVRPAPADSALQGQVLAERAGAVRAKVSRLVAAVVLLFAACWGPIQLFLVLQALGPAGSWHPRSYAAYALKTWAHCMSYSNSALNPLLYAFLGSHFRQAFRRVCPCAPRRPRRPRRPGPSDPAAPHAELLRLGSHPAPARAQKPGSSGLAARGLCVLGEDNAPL
Numbered stars: 1 amine (or outer) side, 2 acyl side, 3 side chain; on linkers, the order of the positions; unused ones are H or OH. Square brackets hold non-standard residues; d marks the D form. * marks the point of attachment. X2 = 4‑amino‑1‑((3-fluoro-4-methylbenzyl)glycyl)piperidine‑4‑carboxylic acid, Cc1ccc(CN(CC(=O)N2CCC(N[*:1])(C(=O)[*:2])CC2)[*:3])cc1F; DOTA = O=C(O)CN1CCN(CC(=O)O)CCN(CC(=O)*)CCN(CC(=O)O)CC1; HO(CH2CH2O)2CH2CH2CO = O=C(CCOCCOCCO)*; 4Pal = N[C@@H](Cc1ccncc1)C(=O)O; azaGly = NNC(=O)O
readout.type: Ki

// query May I ask what Ki has been recorded for {HO(CH2CH2O)2CH2CH2CO}-K(DOTA)TF[azaGly]L[X2][4Pal]-NH2 (SMILES Cc1ccc(CNCC(=O)N2CCC(NC(=O)[C@H](CC(C)C)NC(=O)NNC(=O)[C@H](Cc3ccccc3)NC(=O)[C@@H](NC(=O)[C@H](CCCCNC(=O)CN3CCN(CC(=O)O)CCN(CC(=O)O)CCN(CC(=O)O)CC3)NC(=O)CCOCCOCCO)[C@@H](C)O)(C(=O)N[C@@H](Cc3ccncc3)C(N)=O)CC2)cc1F) [Compound 251] ?
// result > 100 nM
